- TARGET: Dopamine receptor (Bos taurus, UniProt Q95136+P20288)
- TEST SUMMARY: Concentration necessary to achieve half maximal inhibition of [3H](+)-[…]-6,7-dihydroxy-1,2,3,4-tetrahydronaphthalene binding to dopamine receptor at 1 uM
- Type: protein assay
Examples of compounds with documented IC50 follow.
PROPERTY LABEL: IC50 (nM)

COMPOUND | UNIT SPEC | TEST VALUE
CCCN1CCC[C@@H]2c3ccc(O)cc3OC[C@H]21 | nM | 16
CCCN1CCC[C@@H]2c3cc(O)ccc3OC[C@H]21 | nM | 9
CCCN1CCC[C@@H]2c3cccc(O)c3OC[C@H]21 | nM | 30
CN1CCC=C2c3cc(O)ccc3OCC21 (centres undefined) | nM | 20
CN1CCC[C@@H]2c3cccc(O)c3OC[C@H]21 | nM | 11
CN1CCC[C@@H]2c3cc(O)ccc3OC[C@H]21 | nM | 114
CCCN1CCC=C2c3cc(O)ccc3OCC21 (centres undefined) | nM | 51
CCCCN1CCC[C@@H]2c3cccc(O)c3OC[C@H]21 | nM | 8
Cc1ccc(O)c2c1[C@H]1CCCN(C)[C@@H]1CO2 | nM | 26
